The reported numbers originate from ChEMBL document CHEMBL5442219.

Target desc: 5-hydroxytryptamine receptor 2C (Homo sapiens) (UniProt P28335)
Sequence (P28335 whole entry): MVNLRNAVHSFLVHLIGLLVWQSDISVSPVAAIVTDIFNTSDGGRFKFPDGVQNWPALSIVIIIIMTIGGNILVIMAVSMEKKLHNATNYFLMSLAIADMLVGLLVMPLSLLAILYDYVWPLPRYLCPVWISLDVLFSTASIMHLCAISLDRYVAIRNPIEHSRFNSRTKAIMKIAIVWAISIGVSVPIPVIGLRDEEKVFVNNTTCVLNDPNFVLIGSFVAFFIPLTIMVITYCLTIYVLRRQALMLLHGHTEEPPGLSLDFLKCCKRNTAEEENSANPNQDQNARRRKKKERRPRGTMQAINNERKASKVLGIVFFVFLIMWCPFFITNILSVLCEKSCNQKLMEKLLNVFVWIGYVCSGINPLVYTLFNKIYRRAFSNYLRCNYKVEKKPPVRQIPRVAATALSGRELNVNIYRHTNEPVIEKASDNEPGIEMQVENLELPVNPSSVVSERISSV
Experimental context: Compound concentration 10 µM
Description: PDSP Primary Binding target: HTR2C - Compounds are tested at 10 uM concentration, plate are incubated at room temperature in the dark for 90 minutes. Reaction are stopped by vacuum filtration onto 0.3% polyethyleneimine soaked filter mats using Filtermate harvester. Scintilation cocktail is then melted onto microwave-dried filters on a hot plate and the radio activity is counted in Microbia counter.
Metric name: inhibition (%)
Numbers only, in %.

// known answers, use as guide
# Molecule, inhibition (%)
data = [
    ("CC(C)(C)NC[C@H](O)COc1nsnc1N1CCOCC1", -1.62),
    ("O=S1(=O)c2cccc3cccc(c23)N1CCCN1CCN(c2ccc(F)cc2)CC1", 97.4),
    ("CN(C)C(=O)C(CCN1CCC(O)(c2ccc(Cl)cc2)CC1)(c1ccccc1)c1ccccc1", 0.09),
    ("CC(C)Oc1ccccc1C(=O)Nc1ccccc1C(=O)Nc1cccc(S(=O)(=O)C(F)(F)F)c1", 11.3),
    ("COc1cccc(-c2c(C)n(Cc3c(F)cccc3C(F)(F)F)c(=O)n(C[C@H](NCCCC(=O)O)c3ccccc3)c2=O)c1F", 1.76),
]

Go through the list and state inhibition for each entry.
1. CCOC(=O)c1cc(C#N)c(N2CCC(C(=O)NS(=O)(=O)Cc3ccccc3)CC2)nc1C
2. CNC[C@H](O)c1cccc(O)c1
3. O=c1ccc2ccc(OCCCCN3CCN(c4cccc5sccc45)CC3)cc2[nH]1
4. Nc1nc(NCCc2ccc(O)cc2)nc2nc(-c3ccco3)nn12
5. COc1cc2nc(N3CCN(C(=O)c4ccco4)CC3)nc(N)c2cc1OC
6. FC(F)(F)c1cccc(-c2noc(-c3cc(-c4ccccc4)c(C(F)(F)F)s3)n2)c1

Out:
1: 6.09; 2: 16.3; 3: 103; 4: 8.15; 5: 3.9; 6: 1.03

Go through the list and state inhibition for each entry.
1. Nc1nc2c(c(N3CCNCC3)n1)CCC1=C2[C@@H]2CCCC[C@@H]2O1
2. Cc1ccccc1C(=O)Nc1ccc(C(=O)N2CCCC(O)c3cc(Cl)ccc32)c(C)c1 (stereo not given)
3. Cc1ccc2c(c1)c1c(n2CCc2ccc(C)nc2)CCN(C)C1

Out:
[7.29, 78.3, 81.4]

Go through the list and state inhibition for each entry.
1. COC1CCN(c2cccc(-c3cc(NC(C)=O)nc(-n4nc(C)cc4C)n3)n2)CC1
2. C=CCN1C[C@H](C)N([C@H](c2ccc(C(=O)N(CC)CC)cc2)c2cccc(O)c2)C[C@H]1C
3. Cc1cc([C@@H](C)Nc2cccc(-c3cc(C)c(C(=O)N[C@@H](C)C(=O)O)c(C)c3)c2)ccc1Cl
4. O=C(O)c1cc(-c2ccc(C3CCNCC3)cc2)c2ccc(-c3ccc(C(F)(F)F)cc3)cc2c1
5. CCCCCNC(=N)N/N=C/c1c[nH]c2ccc(OC)cc12

Out:
[3.48, 0.93, -0.82, -3.35, 92.8]

Go through the list and state inhibition for each entry.
1. CN1C2CCC1CC(OC(c1ccc(F)cc1)c1ccc(F)cc1)C2 (stereo not given)
2. COc1cc(-n2cnc3cc(-c4ccc(Cl)cc4)sc3c2=O)ccc1OCCN1CCCC1
3. CCc1nn(CCCN2CCN(c3cccc(Cl)c3)CC2)c(=O)n1CCOc1ccccc1
4. Cc1c(OCc2cccc(-c3ccc(C(=O)O)cc3)c2)cc2c(c1C)C(=O)C(C1CCCC1)C2 (stereo not given)
5. CC(C)(N)C(=O)N[C@H](COCc1ccccc1)C(=O)N1CCC2(CC1)CN(S(C)(=O)=O)c1ccccc12
6. CCCCN1CCC(COC(=O)c2cc(Cl)c(N)c3c2OCCO3)CC1
7. COc1cc2c(CCNC(C)=O)c[nH]c2cc1Cl
8. CN[C@@H]1CCc2[nH]c3ccc(C(N)=O)cc3c2C1

Out:
[92.9, 79.9, 102, 6.16, -2.12, 58.2, 18.8, 18.2]
